# System: SNB-75 CNS
# Test Protocol: NCI-60 one-dose screen, 48 h (100 = growth as untreated, 0 = no growth, -100 = all killed)
# Test Context: 10 µM unless noted
# Description: Growth inhibition of the SNB-75 human tumor cell line is measured as a screen for anti-cancer activity. Cells are grown in 96 well plates and exposed to the test compound for 48 hours. Compounds are tested at a single concentration, which is 10^-5 M for most compounds. The reported endpoint is percent growth (GI% or GIPRCNT), where numbers from 0 - 100% represent growth inhibition, and numbers from -100% - 0 represent cell death. For example, a value of 40 represents 60% growth inhibition. […]
The panel holds about 83,000 compounds, 20% with a hit somewhere; the sample as a whole holds those more often.
Here the recorded growth is given for each entry.
Measurement Label: growth (%)

compound="C[N+]1(CCc2ccccc2)CCC(CCC2CC[N+](C)(CCc3ccccc3)CC2)CC1 (stereo not given)" tested_target="SNB-75 CNS" observed_value=83.9
compound=CCCCOc1ccc(C(C)(C)c2ccc(OCCCC)cc2)cc1 tested_target="SNB-75 CNS" observed_value=97.6
compound=CC(C)c1ccc(C(=O)Nc2sc3c(CN(C)C)c(O)ccc3c2C(N)=O)cc1 tested_target="SNB-75 CNS" observed_value=48.5
compound=CN(C(=O)c1ccccc1)N(C)C(=O)c1ccccc1 tested_target="SNB-75 CNS" observed_value=105
compound=Cc1nn(-c2ccc(Cl)cc2)c2nc3c(nc12)C(=O)C(=O)c1ccccc1-3 tested_target="SNB-75 CNS" observed_value=-2.08

====

# Tested on: SF-539 CNS
# Test Protocol: NCI-60 one-dose screen, 48 h (100 = growth as untreated, 0 = no growth, -100 = all killed)
# Test Context: 10 µM unless noted
About 83,000 compounds went through this panel and 20% of them were active in at least one assay; those are over-represented in the sample as a whole. The source made the active and inactive calls. Rule for the calls: active = growth percent below 10; inactive = the rest.
Here the recorded growth is given for each entry.
Measurement Label: growth

molecule=Nc1nc(SCC2(CCl)COC2)c2[nH]cnc2n1 observed_value="99.6% (inactive)"
molecule=COc1cccc(-c2nnc(N)o2)c1 observed_value="111% (inactive)"
molecule="CCCCCCCC1(C)NC(=O)NC1=O (stereo not drawn)" observed_value="97.6% (inactive)"
molecule=O=C(/C=C/c1ccccc1Cl)c1ccc(O)cc1 observed_value="94.1% (inactive)"
molecule=COc1ccc2nc(-c3ccc(-n4cncc4-c4ccc(OC)c(N)c4)cc3)sc2c1 observed_value="105% (inactive)"
molecule=Cc1nnc(Nc2ccc(NC(=O)Nc3ccc(Cl)cc3)cc2)c2ccccc12 observed_value="16.2% (inactive)"
molecule=NC(=Nc1ccccc1)SCCCCSC(N)=Nc1ccccc1 observed_value="114% (inactive)"
molecule=C[n+]1c2ccccc2c(NC2CCNCC2)c2[nH]c3ccccc3c21 observed_value="16.7% (inactive)"
molecule=Cc1cc(O)c2c(c1)C[C@H]1[C@@H]3CC[C@H]4CC(=O)CC[C@]4(C)[C@H]3CC(=O)[C@]21C observed_value="73.3% (inactive)"
molecule=NC(=O)NN=C(C1CC1)C1CC1 observed_value="90.2% (inactive)"
molecule=Cc1nc(N)[nH]c(=O)c1C observed_value="107% (inactive)"
molecule=Fc1ccc([C@@H]2CCNC[C@H]2COc2ccc3c(c2)OCO3)cc1 observed_value="89.5% (inactive)"
molecule=CC(C)[C@]12O[C@H]1[C@@H]1O[C@]13[C@]1(O[C@H]1C[C@H]1C4=C(CC[C@@]13C)C(=O)OC4)[C@@H]2OC(=O)CN(C)C observed_value="-23% (active)"
molecule=NC(=O)N/N=C/c1ccc(Br)o1 observed_value="101% (inactive)"
molecule=COC(=O)[C@]12CC[C@@H](C)[C@H](C)[C@@H]1C1=CC[C@@H]3[C@@]4(C)C=C(O)C(=O)[C@@]5(C)COC(=C54)C[C@@]3(C)[C@]1(C)CC2 observed_value="-91.4% (active)"
molecule=C/C(=N/N=C(N)N)c1ccc(N)cc1 observed_value="96.3% (inactive)"
molecule=O=C(NN(C(=O)c1ccccc1)c1cccs1)c1ccccc1 observed_value="110% (inactive)"
molecule=CN(C)c1ccc2c(c1)/C(=N/O)c1ccccc1-2 observed_value="60% (inactive)"
molecule=Cc1c(C(N)=O)sc2c1C(=O)N(Cc1ccccc1)C1=NN=C(c3ccc(Cl)cc3)CN12 observed_value="53.2% (inactive)"
molecule=NC(N)=N/N=C(/c1ccccc1)c1ccc(Cl)cc1 observed_value="93.3% (inactive)"
molecule="Cc1ccc(C(O)C2=CC(=O)c3ccccc3C2=O)cc1 (stereo not drawn)" observed_value="95.3% (inactive)"
molecule=Cn1cc(-c2csc(-c3cn(C)c4ncccc34)n2)c2cccnc21 observed_value="99% (inactive)"
molecule=CCCCCCCCSc1ncnc2c1ncn2CO observed_value="86.3% (inactive)"

====

# System: RPMI-8226 leukemia
# Test Protocol: NCI-60 one-dose screen, 48 h
# Test Context: 10 µM unless noted
Compounds without any hit were thinned out: in the full panel of roughly 83,000, 20% have a hit. The source made the active and inactive calls. The calls were made as follows: active = growth percent below 10; inactive = the rest.
Outcome codes: true (1) = active, false (0) = inactive

molecule=Clc1cc(Cl)c(OCC#CI)cc1Cl tested_target="RPMI-8226 leukemia" group="false (0)"
molecule=COc1ccc(/C=C/C(=O)Nc2cccnc2Nc2ccc(F)cc2)cc1 tested_target="RPMI-8226 leukemia" group="false (0)"
molecule=Cc1cc(Cl)ccc1Nc1nc(C(F)(F)F)ccc1C(=O)NCC(=O)N/N=C/c1c(Cl)cccc1Cl tested_target="RPMI-8226 leukemia" group="true (1)"
molecule=O=C(CCc1nnc2sc(Cc3ccccc3Cl)nn12)c1nc2ccccc2[nH]1 tested_target="RPMI-8226 leukemia" group="false (0)"
molecule=Cc1cc(C(=O)O)c(C)cc1C(=O)O tested_target="RPMI-8226 leukemia" group="false (0)"
molecule=Cc1cc(C(C)(C)c2cc(C)c(O)c(CN(C)C)c2)cc(CN(C)C)c1O tested_target="RPMI-8226 leukemia" group="false (0)"
molecule="OC(c1cc(C(F)(F)F)nc2c(C(F)(F)F)cccc12)C1CCCCN1 (centres undefined)" tested_target="RPMI-8226 leukemia" group="false (0)"
molecule=NC(=O)N/N=C/c1ccc(Br)o1 tested_target="RPMI-8226 leukemia" group="false (0)"
molecule=N#CCCCCCn1c2ccccc2c2c3c(c4c5ccccc5[nH]c4c21)C(=O)N(O)C3=O tested_target="RPMI-8226 leukemia" group="true (1)"
molecule=Cc1nnc(Nc2ccc(NC(=O)Nc3ccc(Cl)cc3)cc2)c2ccccc12 tested_target="RPMI-8226 leukemia" group="true (1)"
molecule="O=c1ccn(C2OC(CO)C(O)C2F)c(=O)[nH]1 (centres undefined)" tested_target="RPMI-8226 leukemia" group="false (0)"
molecule=O=[N+]([O-])c1ccc(Oc2cccc(C(F)(F)F)c2)c([N+](=O)[O-])c1 tested_target="RPMI-8226 leukemia" group="false (0)"
molecule=O=C(Nc1ccc(Cl)cc1)c1cc2c(cc1O)[nH]c1ccccc12 tested_target="RPMI-8226 leukemia" group="true (1)"
molecule=COc1cc2c(-c3nc4cc(Cl)c(F)cc4s3)cc(=O)oc2c(C)c1OC tested_target="RPMI-8226 leukemia" group="true (1)"
molecule="CC[C@]1(O)CC2CN(CCc3c([nH]c4ccccc34)[C@@](C(=O)OC)(c3cc4c(cc3OC)N(C)[C@H]3[C@@](O)(C(=O)OC)[C@H](OC(C)=O)[C@]5(CC)C=CCN6CC[C@]43[C@@H]65)C2)C1 (some centres undefined)" tested_target="RPMI-8226 leukemia" group="true (1)"
molecule=CC1=NN(c2ccccc2Cl)C(=O)/C1=C\c1cn(S(=O)(=O)c2ccc(C)cc2)c2ccccc12 tested_target="RPMI-8226 leukemia" group="false (0)"
molecule=CN(CC(=O)N(Cc1ccc(C2CCCCC2)cc1)c1ccc(C(=O)O)cc1)S(=O)(=O)c1c(F)c(F)c(F)c(F)c1F tested_target="RPMI-8226 leukemia" group="false (0)"
molecule=CN(C)c1nc(-c2ccco2)n2nc(-c3ccco3)cc2n1 tested_target="RPMI-8226 leukemia" group="false (0)"
molecule="C=C1c2c(C)nn(-c3ccc(C#CCOC4OC(CO)C(O)C(O)C4O)cc3)c2N(C)C23C[C@H]1C1(C)c4c(C)nn(-c5ccc(C#CCOC6OC(CO)C(O)C(O)C6O)cc5)c4N(C)C(C)(C[C@H]12)C3 (some centres undefined)" tested_target="RPMI-8226 leukemia" group="true (1)"

====

# System: SK-MEL-28 melanoma
# Test Protocol: NCI-60 one-dose screen, 48 h (100 = growth as untreated, 0 = no growth, -100 = all killed)
# Test Context: 10 µM unless noted
This is part of a sample that, as a whole, favours compounds with a hit. Of some 83,000 tested, about 20% had one in any assay.
Measurement Label: growth (%)

compound=O=C(CCc1nnc(Cn2cncn2)o1)c1nc2ccccc2[nH]1 observed_value=105
compound=O=C1OCCCCCCCCCC#Cc2ccccc21 observed_value=110
compound="CC(=O)O[C@H]1C(=O)[C@@]2(C)C([C@H](OC(=O)c3ccccc3)[C@]3(O)C[C@H](OC(=O)[C@H](O)[C@@H](NC(=O)c4ccccc4)c4ccccc4)C(C)=C1C3(C)C)[C@]1(OC(C)=O)CO[C@@H]1C[C@@H]2O (stereo partly specified)" observed_value=57.5
compound=Cc1nn(-c2ccc(Cl)cc2)c2nc3c(nc12)c(=O)oc1ccccc13 observed_value=110
compound=NC(N)=N/N=C(/c1ccccc1)c1ccc(Cl)cc1 observed_value=53.9
compound=NC(=O)N/N=C/c1ccc(Br)o1 observed_value=105
